Here the recorded IC50 is given for each entry.
ASSAYED SYSTEM: recombinant BACE1 protein (Homo sapiens)
Sequence (P56817 46-501): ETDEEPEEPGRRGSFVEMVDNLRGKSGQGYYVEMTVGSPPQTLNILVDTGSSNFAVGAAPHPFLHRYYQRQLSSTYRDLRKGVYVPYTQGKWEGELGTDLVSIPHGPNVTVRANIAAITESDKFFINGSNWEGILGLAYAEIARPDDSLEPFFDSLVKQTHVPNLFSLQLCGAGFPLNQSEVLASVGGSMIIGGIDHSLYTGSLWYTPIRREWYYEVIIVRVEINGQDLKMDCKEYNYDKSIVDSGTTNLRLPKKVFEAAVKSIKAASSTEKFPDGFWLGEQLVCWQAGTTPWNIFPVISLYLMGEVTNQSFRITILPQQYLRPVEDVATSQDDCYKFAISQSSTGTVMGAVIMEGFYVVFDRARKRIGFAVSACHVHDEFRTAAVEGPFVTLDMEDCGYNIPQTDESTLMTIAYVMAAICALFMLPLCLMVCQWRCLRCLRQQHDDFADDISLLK
MEASUREMENT NOTES: BACE1 biochemical FRET based assay
MEASUREMENT SETUP: BACE1 0.04 μg/ml, 20 μM substrate, pH 5.0, 450 min; read-out: Biochemical FRET based assay pIC50 (converted)
PROPERTY MEASURED: IC50 (nM)

[[record]]
structure_notation = "C[C@@]1(c2cc(NC(=O)c3ccc(F)cn3)ccc2F)Cn2c(cn(CC(F)(F)F)c2=O)C(N)=N1"
result = 12.3

[[record]]
structure_notation = "COc1cnc(C(=O)Nc2ccc(F)c([C@]3(C)Cn4c(cn(C)c4=O)C(N)=N3)c2)cn1"
result = 9.55

[[record]]
structure_notation = "Cc1nc(C(=O)Nc2ccc(F)c([C@]3(C)Cn4c(cn(C)c4=O)C(N)=N3)c2)co1"
result = 9.55


----------
System: Abeta total produced and secreted by human neuroblastoma SKNBE2 cells expressing hAPP695
MEASUREMENT NOTES: Cellular αLisa assay in SKNBE2 cells, Abeta total
Format: cell-based
MEASUREMENT SETUP: 18 hours incubation, read-out: Cellular αLisa assay in SKNBE2 cells Abetatotal pIC50 (converted)
Here the recorded IC50 is given for each entry.
PROPERTY MEASURED: IC50 (nM)

[[record]]
structure_notation = "Cn1cc2n(c1=O)C[C@@](C)(c1cc(NC(=O)c3ccc(C#N)cn3)ccc1F)N=C2N"
property_measured = "IC50"
result = 11.5

[[record]]
structure_notation = "Cn1cc2n(c1=O)C[C@@](C)(c1cc(-c3cncnc3)ccc1F)N=C2N"
property_measured = "IC50"
result = 1020

[[record]]
structure_notation = "C[C@@]1(c2cc(NC(=O)c3ccc(F)cn3)ccc2F)Cn2c(cn(CC(F)(F)F)c2=O)C(N)=N1"
property_measured = "IC50"
result = 16.6

[[record]]
structure_notation = "Cc1cc(C#N)cnc1C(=O)Nc1ccc(F)c([C@]2(C)Cn3c(cn(C)c3=O)C(N)=N2)c1"
property_measured = "IC50"
result = 33.1


----------
ASSAYED SYSTEM: recombinant BACE2 protein (Homo sapiens, UniProt Q9Y5Z0)
Sequence (Q9Y5Z0 63-518): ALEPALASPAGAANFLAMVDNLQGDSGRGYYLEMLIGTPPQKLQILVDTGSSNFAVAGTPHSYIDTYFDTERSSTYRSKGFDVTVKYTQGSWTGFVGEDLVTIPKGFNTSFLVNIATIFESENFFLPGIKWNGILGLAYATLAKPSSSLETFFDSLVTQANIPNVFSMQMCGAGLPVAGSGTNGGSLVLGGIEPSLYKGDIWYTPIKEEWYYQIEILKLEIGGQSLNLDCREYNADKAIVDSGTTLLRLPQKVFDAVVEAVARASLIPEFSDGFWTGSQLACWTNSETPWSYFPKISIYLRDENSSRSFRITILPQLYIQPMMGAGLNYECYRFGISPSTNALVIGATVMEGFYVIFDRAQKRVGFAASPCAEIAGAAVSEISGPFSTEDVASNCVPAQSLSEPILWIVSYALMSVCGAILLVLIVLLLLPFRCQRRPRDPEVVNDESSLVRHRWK
MEASUREMENT NOTES: BACE2 biochemical FRET based assay
MEASUREMENT SETUP: BACE2 0.4 μg/ml, 10 μM substrate, pH 5.0, 450 min; read-out: BACE2 Biochemical FRET based assay pIC50 (converted)
Here the recorded IC50 is given for each entry.
PROPERTY MEASURED: IC50

[[record]]
compound = "C[C@@]1(c2cc(NC(=O)c3ccc(C#N)cn3)ccc2F)Cn2c(cn(CC(F)(F)F)c2=O)C(N)=N1 [Compound 10]"
result = "0.012 µM"

[[record]]
compound = "Cn1cc2n(c1=O)C[C@@](C)(c1cc(-c3cncnc3)ccc1F)N=C2N [Compound 2]"
result = "7.08 µM"

[[record]]
compound = "C[C@@]1(c2cc(NC(=O)c3ccc(Cl)cn3)ccc2F)Cn2c(cn(CC(F)(F)F)c2=O)C(N)=N1 [Compound 8]"
result = "0.00661 µM"


----------
PROPERTY MEASURED: melting point (°C)

[[record]]
structure_notation = "C[C@@]1(c2cc(NC(=O)c3ccc(Cl)cn3)ccc2F)Cn2c(cn(CC(F)(F)F)c2=O)C(N)=N1"
result = 219.9

[[record]]
structure_notation = "COc1cnc(C(=O)Nc2ccc(F)c([C@]3(C)Cn4c(cn(CC(F)(F)F)c4=O)C(N)=N3)c2)cn1"
result = 280.5

[[record]]
structure_notation = "C[C@@]1(c2cc(NC(=O)c3ccc(C#N)cn3)ccc2F)Cn2c(cn(CC(F)(F)F)c2=O)C(N)=N1"
result = 235

[[record]]
structure_notation = "Cn1cc2n(c1=O)C[C@@](C)(c1cc(NC(=O)c3ccc(Cl)cn3)ccc1F)N=C2N"
result = 214.8

[[record]]
structure_notation = "Cn1cc2n(c1=O)C[C@@](C)(c1cc(-c3cncnc3)ccc1F)N=C2N"
result = 239.1

[[record]]
structure_notation = "C[C@@]1(c2cc(NC(=O)c3ccc(F)cn3)ccc2F)Cn2c(cn(CC(F)(F)F)c2=O)C(N)=N1"
result = 239.9


----------
Tested on: Abeta 1-42 produced and secreted by human neuroblastoma SKNBE2 cells expressing hAPP695
MEASUREMENT NOTES: Cellular αLisa assay in SKNBE2 cells, Abeta 1-42
Assay type: cell-based
MEASUREMENT SETUP: 18 hours incubation, read-out: Cellular αLisa assay in SKNBE2 cells Abeta 42 pIC50 (converted)
Here the recorded log10 IC50 is given for each entry.
PROPERTY MEASURED: log10 IC50 (log10 of the value in nM)

[[record]]
compound = "Cn1cc2n(c1=O)C[C@@](C)(c1cc(NC(=O)c3ccc(C#N)cn3)ccc1F)N=C2N [Compound 1]"
assayed_system = "Abeta 1-42 produced and secreted by human neuroblastoma SKNBE2 cells expressing hAPP695"
result = 1.12

[[record]]
compound = "C[C@@]1(c2cc(NC(=O)c3ccc(C#N)cn3)ccc2F)Cn2c(cn(CC(F)(F)F)c2=O)C(N)=N1 [Compound 10]"
assayed_system = "Abeta 1-42 produced and secreted by human neuroblastoma SKNBE2 cells expressing hAPP695"
result = 1.10

[[record]]
compound = "C[C@@]1(c2cc(NC(=O)c3ccc(Cl)cn3)ccc2F)Cn2c(cn(CC(F)(F)F)c2=O)C(N)=N1 [Compound 8]"
assayed_system = "Abeta 1-42 produced and secreted by human neuroblastoma SKNBE2 cells expressing hAPP695"
result = 0.75

[[record]]
compound = "C[C@@]1(c2cc(NC(=O)c3ccc(F)cn3)ccc2F)Cn2c(cn(CC(F)(F)F)c2=O)C(N)=N1 [Compound 7]"
assayed_system = "Abeta 1-42 produced and secreted by human neuroblastoma SKNBE2 cells expressing hAPP695"
result = 1.27

[[record]]
compound = "Cn1cc2n(c1=O)C[C@@](C)(c1cc(NC(=O)c3ccc(F)cn3)ccc1F)N=C2N [Compound 6]"
assayed_system = "Abeta 1-42 produced and secreted by human neuroblastoma SKNBE2 cells expressing hAPP695"
result = 1.94

[[record]]
compound = "Cc1nc(C(=O)Nc2ccc(F)c([C@]3(C)Cn4c(cn(C)c4=O)C(N)=N3)c2)co1 [Compound 3]"
assayed_system = "Abeta 1-42 produced and secreted by human neuroblastoma SKNBE2 cells expressing hAPP695"
result = 1.76

[[record]]
compound = "Cn1cc2n(c1=O)C[C@@](C)(c1cc(-c3cncnc3)ccc1F)N=C2N [Compound 2]"
assayed_system = "Abeta 1-42 produced and secreted by human neuroblastoma SKNBE2 cells expressing hAPP695"
result = 3.10

[[record]]
compound = "COc1cnc(C(=O)Nc2ccc(F)c([C@]3(C)Cn4c(cn(C)c4=O)C(N)=N3)c2)cn1 [Compound 5]"
assayed_system = "Abeta 1-42 produced and secreted by human neuroblastoma SKNBE2 cells expressing hAPP695"
result = 1.56

[[record]]
compound = "COc1cnc(C(=O)Nc2ccc(F)c([C@]3(C)Cn4c(cn(CC(F)(F)F)c4=O)C(N)=N3)c2)cn1 [Compound 11]"
assayed_system = "Abeta 1-42 produced and secreted by human neuroblastoma SKNBE2 cells expressing hAPP695"
result = 1.09

[[record]]
compound = "Cc1cc(C#N)cnc1C(=O)Nc1ccc(F)c([C@]2(C)Cn3c(cn(C)c3=O)C(N)=N2)c1 [Compound 9]"
assayed_system = "Abeta 1-42 produced and secreted by human neuroblastoma SKNBE2 cells expressing hAPP695"
result = 1.59

[[record]]
compound = "Cn1cc2n(c1=O)C[C@@](C)(c1cc(NC(=O)c3ccc(Cl)cn3)ccc1F)N=C2N [Compound 4]"
assayed_system = "Abeta 1-42 produced and secreted by human neuroblastoma SKNBE2 cells expressing hAPP695"
result = 0.80


----------
ASSAYED SYSTEM: recombinant BACE2 protein (Homo sapiens, UniProt Q9Y5Z0)
MEASUREMENT NOTES: BACE2 biochemical FRET based assay
MEASUREMENT SETUP: BACE2 0.4 μg/ml, 10 μM substrate, pH 5.0, 450 min; read-out: BACE2 Biochemical FRET based assay pIC50 (converted)
The label fulfilled is reserved for IC50 strictly under 20 nM; not fulfilled covers values equal to or above it.

[[record]]
structure_notation = "Cn1cc2n(c1=O)C[C@@](C)(c1cc(NC(=O)c3ccc(Cl)cn3)ccc1F)N=C2N"
assigned_category = "fulfilled"

[[record]]
structure_notation = "Cc1nc(C(=O)Nc2ccc(F)c([C@]3(C)Cn4c(cn(C)c4=O)C(N)=N3)c2)co1"
assigned_category = "fulfilled"

[[record]]
structure_notation = "Cc1cc(C#N)cnc1C(=O)Nc1ccc(F)c([C@]2(C)Cn3c(cn(C)c3=O)C(N)=N2)c1"
assigned_category = "not fulfilled"

[[record]]
structure_notation = "COc1cnc(C(=O)Nc2ccc(F)c([C@]3(C)Cn4c(cn(CC(F)(F)F)c4=O)C(N)=N3)c2)cn1"
assigned_category = "not fulfilled"

[[record]]
structure_notation = "Cn1cc2n(c1=O)C[C@@](C)(c1cc(NC(=O)c3ccc(F)cn3)ccc1F)N=C2N"
assigned_category = "fulfilled"

[[record]]
structure_notation = "COc1cnc(C(=O)Nc2ccc(F)c([C@]3(C)Cn4c(cn(C)c4=O)C(N)=N3)c2)cn1"
assigned_category = "not fulfilled"

[[record]]
structure_notation = "C[C@@]1(c2cc(NC(=O)c3ccc(F)cn3)ccc2F)Cn2c(cn(CC(F)(F)F)c2=O)C(N)=N1"
assigned_category = "fulfilled"

